meta.source: ChEMBL document CHEMBL1208765

Test system: Splenocyte
ASSAY_SUMMARY: Immunomodulatory effect in mouse splenocyte assessed as increase in ConA-induced IL2 release at 25 uM by lymphoproliferation test
Assay type: functional
Just a reminder that ties go to Not met: only Activity strictly below 20 pg/mL counts as Met.

COMPOUND | LABEL_CLASS
C=C(CO)[C@@H]1CC[C@]2(C(=O)O[C@H]3O[C@@H](CO[C@H]4O[C@@H](CO)[C@H](O[C@H]5O[C@@H](C)[C@H](O)[C@@H](O)[C@H]5O)[C@@H](O)[C@@H]4O)[C@H](O)[C@@H](O)[C@@H]3O)CC[C@]3(C)[C@H](C[C@@H](O)[C@@H]4[C@@]5(C)CC[C@@H](O[C@@H]6O[C@H](CO)[C@@H](O)[C@H](O)[C@H]6O)C(C)(C)[C@@H]5CC[C@]43C)[C@@H]12 [ACANKOREOSIDE N] | Met
C=C(CO)[C@@H]1CC[C@]2(C(=O)O[C@H]3O[C@@H](CO[C@H]4O[C@@H](CO)[C@H](O[C@H]5O[C@@H](C)[C@H](O)[C@@H](O)[C@H]5O)[C@@H](O)[C@@H]4O)[C@H](O)[C@@H](O)[C@@H]3O)CC[C@]3(C)[C@H](C[C@@H](O)[C@@H]4[C@@]5(C)CC[C@@H](O)[C@@](C)(C(=O)O)[C@@H]5CC[C@]43C)[C@@H]12 [ACANKOREOSIDE M] | Met
C=C(C)[C@@H]1CC[C@]2(C(=O)O[C@@H]3O[C@H](CO[C@@H]4O[C@H](CO)[C@@H](O[C@@H]5O[C@@H](C)[C@H](O)[C@@H](O)[C@H]5O)[C@H](O)[C@H]4O)[C@@H](O)[C@H](O)[C@H]3O)CC[C@]3(C)[C@H](CC[C@@H]4[C@@]5(C)CC[C@@H](O)[C@@](C)(C(=O)O)[C@@H]5CC[C@]43C)[C@@H]12 [ACANKOREOSIDE A] | Not met
C=C(CO)[C@@H]1CC[C@]2(C(=O)O[C@H]3O[C@@H](CO[C@H]4O[C@@H](CO)[C@H](O[C@H]5O[C@@H](C)[C@H](O)[C@@H](O)[C@H]5O)[C@@H](O)[C@@H]4O)[C@H](O)[C@@H](O)[C@@H]3O)CC[C@]3(C)[C@H](C[C@@H](O)[C@@H]4[C@@]5(C)CC[C@@H](O)[C@@](C)(C=O)[C@@H]5CC[C@]43C)[C@@H]12 [ACANKOREOSIDE I] | Met
CC(C)[C@]1(O)CC[C@]2(C(=O)O[C@H]3O[C@@H](CO[C@H]4O[C@@H](CO)[C@H](O[C@H]5O[C@@H](C)[C@H](O)[C@@H](O)[C@H]5O)[C@@H](O)[C@@H]4O)[C@H](O)[C@@H](O)[C@@H]3O)CC[C@]3(C)[C@H](CC[C@@H]4[C@@]5(C)CC[C@@H](O)[C@@](C)(C(=O)O)[C@@H]5CC[C@]43C)[C@H]21 [ACANKOREOSIDE O] | Met
COC(OC)[C@@H](C)[C@@H]1CC[C@]2(C(=O)O[C@H]3O[C@@H](CO[C@H]4O[C@@H](CO)[C@H](O[C@H]5O[C@@H](C)[C@H](O)[C@@H](O)[C@H]5O)[C@@H](O)[C@@H]4O)[C@H](O)[C@@H](O)[C@@H]3O)CC[C@]3(C)[C@H](CC[C@@H]4[C@@]5(C)CC[C@@H](O)[C@@](C)(C(=O)O)[C@@H]5CC[C@]43C)[C@@H]12 [ACANKOREOSIDE L] | Not met
CC(=O)[C@@H]1CC[C@]2(C(=O)O[C@H]3O[C@@H](CO[C@H]4O[C@@H](CO)[C@H](O[C@H]5O[C@@H](C)[C@H](O)[C@@H](O)[C@H]5O)[C@@H](O)[C@@H]4O)[C@H](O)[C@@H](O)[C@@H]3O)CC[C@]3(C)[C@H](CC[C@@H]4[C@@]5(C)CC[C@@H](O)[C@@](C)(C(=O)O)[C@@H]5CC[C@]43C)[C@@H]12 | Met
C=C(C)[C@@H]1CC[C@]2(C(=O)O[C@@H]3O[C@H](CO[C@@H]4O[C@H](CO)[C@@H](O[C@H]5O[C@@H](C)[C@H](O)[C@@H](O)[C@H]5O)[C@H](O)[C@H]4O)[C@@H](O)[C@H](O)[C@H]3O)CC[C@]3(C)[C@H](C[C@@H](O)[C@@H]4[C@@]5(C)CC[C@@H](O)[C@@](C)(C=O)[C@@H]5CC[C@]43C)[C@@H]12 [ACANKOREOSIDE D] | Not met
C=C(C)[C@@H]1CC[C@]2(C(=O)O[C@@H]3O[C@H](CO[C@@H]4O[C@H](CO)[C@@H](O[C@H]5O[C@@H](C)[C@H](O)[C@@H](O)[C@H]5O)[C@H](O)[C@H]4O)[C@@H](O)[C@H](O)[C@H]3O)CC[C@]3(C)[C@H](C[C@@H](O)[C@@H]4[C@@]5(C)CC[C@@H](O)C(C)(C)[C@@H]5CC[C@]43C)C12 (stereo partly specified) [ACANTRIFOSIDE A] | Not met
C=C(CO)[C@@H]1CC[C@]2(C(=O)O[C@H]3O[C@@H](CO[C@H]4O[C@@H](CO)[C@H](O[C@H]5O[C@@H](C)[C@H](O)[C@@H](O)[C@H]5O)[C@@H](O)[C@@H]4O)[C@H](O)[C@@H](O)[C@@H]3O)CC[C@]3(C)[C@H](CC[C@@H]4[C@@]5(C)CC[C@@H](O)[C@@](C)(C(=O)O)[C@@H]5CC[C@]43C)[C@@H]12 [ACANKOREOSIDE F] | Not met
